# Tested on: PPARg:RXRa (NR concentration 180 nM, RXRa partner concentration 90 nM)
# Assay Notes: PBM binding z-score (relative to random genomic background probes); higher = stronger binding; sequences stand for … in GC…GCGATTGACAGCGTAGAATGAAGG
Reported Property: PBM binding z-score
# respond with the number and nothing more

Past entries and their recorded results:
Sequence Data | Value Measured
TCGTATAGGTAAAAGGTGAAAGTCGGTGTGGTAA | 6.49
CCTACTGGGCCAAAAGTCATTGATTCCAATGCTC | 7.06
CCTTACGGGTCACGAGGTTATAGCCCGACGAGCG | 7.34
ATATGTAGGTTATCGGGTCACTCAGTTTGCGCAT | 7.63
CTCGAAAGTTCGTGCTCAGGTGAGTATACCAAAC | -0.262
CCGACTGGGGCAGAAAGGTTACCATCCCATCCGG | 1.44
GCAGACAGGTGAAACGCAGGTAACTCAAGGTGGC | 0.604
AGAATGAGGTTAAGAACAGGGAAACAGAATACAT | 2.15
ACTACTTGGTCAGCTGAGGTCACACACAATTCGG | 2.24
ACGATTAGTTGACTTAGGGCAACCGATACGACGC | 0.855

In: Query (sequence): "CAAACTAGGTCAAGAGGTCAATGTCCGCTTCCCG" ; field requested: PBM binding z-score
Out: 9.5

In: What do you have for "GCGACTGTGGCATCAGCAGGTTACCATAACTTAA" ?
Out: 0.0982

In: What do you have for "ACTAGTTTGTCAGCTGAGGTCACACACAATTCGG" ?
Out: 1.49

In: What do you have for "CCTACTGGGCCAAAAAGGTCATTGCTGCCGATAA" ?
Out: 3.04

In: What do you have for "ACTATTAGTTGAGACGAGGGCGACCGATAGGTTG" ?
Out: 0.629

In: What do you have for "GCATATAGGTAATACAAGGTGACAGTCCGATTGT" ?
Out: 1.5

In: What do you have for "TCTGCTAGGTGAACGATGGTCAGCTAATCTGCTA" ?
Out: 0.238

In: What do you have for "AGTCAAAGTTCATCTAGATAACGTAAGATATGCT" ?
Out: 6.44

In: What do you have for "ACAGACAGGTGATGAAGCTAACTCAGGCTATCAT" ?
Out: 0.522

In: What do you have for "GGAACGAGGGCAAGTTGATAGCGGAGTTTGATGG" ?
Out: 0.963

In: What do you have for "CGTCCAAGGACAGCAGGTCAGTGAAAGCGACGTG" ?
Out: 0.186

In: What do you have for "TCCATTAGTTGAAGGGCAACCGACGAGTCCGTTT" ?
Out: 0.134

In: What do you have for "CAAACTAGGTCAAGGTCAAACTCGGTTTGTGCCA" ?
Out: 9.59

In: What do you have for "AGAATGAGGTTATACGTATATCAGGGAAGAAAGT" ?
Out: 2.58

In: What do you have for "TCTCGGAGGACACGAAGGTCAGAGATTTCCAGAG" ?
Out: 0.75

In: What do you have for "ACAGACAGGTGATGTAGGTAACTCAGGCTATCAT" ?
Out: 0.673
